src = patent US9540323B2

measured-on: UniProtKB P47900
Sequence (P47900 whole entry): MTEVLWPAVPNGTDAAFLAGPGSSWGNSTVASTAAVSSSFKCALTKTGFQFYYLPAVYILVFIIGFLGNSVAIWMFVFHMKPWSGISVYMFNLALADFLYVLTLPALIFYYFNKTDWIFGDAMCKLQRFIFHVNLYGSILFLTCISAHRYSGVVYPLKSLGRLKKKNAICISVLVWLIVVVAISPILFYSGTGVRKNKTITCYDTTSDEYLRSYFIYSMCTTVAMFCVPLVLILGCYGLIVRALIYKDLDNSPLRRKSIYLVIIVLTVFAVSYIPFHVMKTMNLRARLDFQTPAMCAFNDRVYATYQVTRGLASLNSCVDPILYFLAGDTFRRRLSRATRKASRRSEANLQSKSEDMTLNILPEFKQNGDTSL
protocol-notes: Binding Assay B - Scintillation Proximity Assay (SPA) for P2Y1 binding, [33P] 2MeS-ADP
test-conditions: SPA, 0.3 nM [33P] 2MeS-ADP, Cheng-Prusoff; read-out: P2Y1 Ki (nM) using binding assay B
Response field label: string, one of met (Ki strictly below 20 nM) or not met.

Query :: is_below(Ki, 20 nM) for CC(C)n1nc(-c2c(F)cc(O)c3c2C(C)(C)CN3c2ccccc2NC(=O)Nc2csc(Cl)n2)cc1C(F)(F)F [Example 273] ?
Result :: met

Query :: Hi there! Is Ki for CC1(C)CN(c2ccccc2NC(=O)Nc2nc3ccc(Cl)cc3s2)c2c(O)ccc(Br)c21 [Example 41] below 20 nM, do you know?
Result :: met

Query :: # strict comparison: is reported Ki < 20 nM? input = COc1ccc2nc(NC(=O)Nc3ccccc3N3CC(C)(C)c4c(-c5nc6ccc(F)cc6s5)c(F)cc(O)c43)sc2c1 [Example 179]
Result :: not met

Query :: I'd appreciate it if you could check whether CCC1(CC)CN(c2ccccc2NC(=O)Nc2ccc(C(F)(F)F)cc2)c2c(O)ccc(Cl)c21 [Example 52] has Ki smaller than 20 nM.
Result :: met

Query :: Quick check: does CC(C)n1nc(-c2c(F)cc(O)c3c2C(C)(C)CN3c2ccccc2NC(=O)Nc2nc3ccc(Cl)cc3s2)cc1C(F)(F)F [Example 266] have Ki under 20 nM?
Result :: not met

Query :: Does the reported Ki of the following molecule sit strictly below 20 nM? CC1(C)CN(c2ccccc2NC(=O)Nc2ccc(OC(F)(F)F)cc2)c2c(O)c(F)cc(-c3nc4ccc(Cl)cc4s3)c21 [Example 130]
Result :: not met

Query :: Consider CC1(C)CN(c2ccccc2NC(=O)Nc2ccc(OC(F)(F)F)cc2)c2c(O)cc(F)c(-c3cccc(CN4CCOCC4)c3)c21 [Example 251] . Does its Ki lie strictly below 20 nM?
Result :: met

----------
Test system: human platelet rich plasma (PRP)
protocol-notes: ADP induced platelet aggregation assay
test-conditions: Homo sapiens, Platelet, 5 min, read-out: PA IC50 (μM) @ 10 μM ADP, human PRP, 10 μM ADP, AUC at 5 minute
Consider the following partition of reported IC50 into named classes: bottom range: < 0.2 µM; center range: ≥ 0.2 µM and < 0.6 µM; top range: ≥ 0.6 µM

Query :: Categorize the following entry: CC1(C)CN(c2ccccc2NC(=O)Nc2csc(Cl)n2)c2c(O)cc(F)c(-c3nc4cc(F)ccc4s3)c21 [Example 181]
Result :: center range

Query :: In plain terms, what class is CC1(C)CN(c2ccccc2NC(=O)Nc2ccc(OC(F)(F)F)cc2)c2c(O)cc(F)c(-c3cc(F)nc(F)c3)c21 [Example 161] ?
Result :: bottom range

Query :: Which category does the recorded IC50 put CC1(C)CN(c2ccccc2NC(=O)Nc2nc3ccc(Cl)cc3s2)c2c(O)ccc(C(F)(F)F)c21 [Example 19] in?
Result :: bottom range

Query :: GET /class?item= CC1(C)CN(c2ccccc2NC(=O)Nc2ccc(OC(F)(F)F)cc2)c2c(O)c(F)cc(-c3nc4ccc(Cl)cc4s3)c21 [Example 130]
Result :: top range

Query :: Exam item: assign CC1(C)CN(c2ccccc2NC(=O)Nc2ccc(OC(F)(F)F)cc2)c2c(O)ccc(-c3ccc(Cl)cc3)c21 [Example 205] to the correct category.
Result :: bottom range

Query :: Given CC1(C)CN(c2ccc(F)cc2NC(=O)Nc2ccc(F)cc2F)c2c(O)ccc(C(F)(F)F)c21 [Example 60] , name the class its IC50 places it in.
Result :: top range

Query :: Band for CC1(C)CN(c2ccccc2NC(=O)Nc2nc3ccc(Cl)nc3s2)c2c(O)cc(F)c(-c3cc(C(F)(F)F)no3)c21 [Example 263] ?
Result :: top range

Query :: Into which category would you place CC1(C)CN(c2ccccc2NC(=O)Nc2nc3ccc(Cl)cc3s2)c2c(O)cc(F)c(-c3ccc(Cl)cc3)c21 [Example 225] ?
Result :: center range

Query :: Class (by measured IC50) for CC(C)CN1CCCC1c1ccc(NC(=O)Nc2ccccc2N2CC(C)(C)c3cccc(O)c32)cc1 (stereo not shown) [Example 11]
Result :: top range

Query :: In plain terms, what class is CC1(C)CN(c2ccccc2NC(=O)Nc2ccc(OC(F)(F)F)cc2)c2c(O)ccc(-c3ccccc3)c21 [Example 195] ?
Result :: bottom range
